# tested.system: D(2) dopamine receptor (Rattus norvegicus, UniProt P61169)
# Sequence (P61169 whole entry): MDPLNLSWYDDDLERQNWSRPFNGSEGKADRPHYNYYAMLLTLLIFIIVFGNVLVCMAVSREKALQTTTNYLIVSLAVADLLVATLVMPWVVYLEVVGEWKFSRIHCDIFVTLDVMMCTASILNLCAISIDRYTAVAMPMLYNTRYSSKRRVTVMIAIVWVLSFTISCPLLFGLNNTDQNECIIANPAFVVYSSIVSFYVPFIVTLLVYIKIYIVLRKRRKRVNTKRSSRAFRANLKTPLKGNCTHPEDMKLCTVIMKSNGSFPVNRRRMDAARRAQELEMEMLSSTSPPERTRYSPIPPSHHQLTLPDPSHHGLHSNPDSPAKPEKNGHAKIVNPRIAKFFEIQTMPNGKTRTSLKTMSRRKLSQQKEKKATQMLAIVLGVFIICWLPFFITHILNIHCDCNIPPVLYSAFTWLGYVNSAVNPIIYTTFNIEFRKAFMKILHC
# assay.procedure: Inhibition of [3H]haloperidol binding for Dopamine receptor D2 in rat striatal membranes. (2% inhibition at 10 e-6 M)
# Format: cell membranes, Membrane
pIC50: −log10 of the molar value.
measured.metric: pIC50

smiles.data: CCCN1CCC=C(c2cnc(N)s2)C1
result: < 6.00

====

Measured inhibition in vivo at 30 mg/kg of individual entries
# Test system: Rattus norvegicus
# assay.procedure: Decrease of DOPA formation effected by 30 mg/kg administered intraperitoneally in the striatum of GBL-treated rats
# Type: functional
# condition.context: ip, route intraperitoneal
measured.metric: inhibition in vivo at 30 mg/kg (%)

molecule: CCCCN1CCC=C(c2csc(N)n2)C1.Cl.Cl
unit.descriptor: %
numeric.result: 0

molecule: CCCN1CCC=C(c2csc(N)n2)C1
unit.descriptor: %
numeric.result: 100

molecule: C=CCN1CCC=C(c2csc(N)n2)C1
unit.descriptor: %
numeric.result: 100

molecule: Br.Br.CCCCCN1CCC=C(c2csc(N)n2)C1
unit.descriptor: %
numeric.result: 0

molecule: CCCN1CCCC(c2csc(N)n2)C1.Cl.Cl (stereo not given)
unit.descriptor: %
numeric.result: 55

====

# tested.system: D(2) dopamine receptor (Rattus norvegicus)
# assay.procedure: Inhibition of [3H]haloperidol binding for Dopamine receptor D2 in rat striatal membranes. (41% inhibition at 10 e-6 M)
# Assay type: cell membranes, Membrane

smiles.data: CCCN1CCC=C(c2csc(C)n2)C1.Cl.Cl
IC50: > 1 µM

====

# tested.system: D(2) dopamine receptor (Rattus norvegicus, UniProt P61169)
# assay.procedure: Inhibition of [3H]haloperidol binding for Dopamine receptor D2 in rat striatal membranes.
# Format: cell membranes, Membrane
// returns false (0) unless IC50 is strictly below 1 µM, in which case true (1)

smiles.data: C=CCN1CCC=C(c2csc(N)n2)C1
tested.system: D(2) dopamine receptor (Rattus norvegicus, UniProt P61169)
class.assignment: true (1)
//
smiles.data: CCN1CCC=C(c2csc(N)n2)C1
tested.system: D(2) dopamine receptor (Rattus norvegicus, UniProt P61169)
class.assignment: true (1)
//
smiles.data: Br.Br.CCCCCN1CCC=C(c2csc(N)n2)C1
tested.system: D(2) dopamine receptor (Rattus norvegicus, UniProt P61169)
class.assignment: false (0)
//
smiles.data: CN1CCC=C(c2csc(N)n2)C1.Cl.Cl
tested.system: D(2) dopamine receptor (Rattus norvegicus, UniProt P61169)
class.assignment: false (0)
//
smiles.data: Cl.Cl.Nc1nc(C2=CCCN(CCc3ccccc3)C2)cs1
tested.system: D(2) dopamine receptor (Rattus norvegicus, UniProt P61169)
class.assignment: false (0)
//
smiles.data: CCCN1CCC=C(c2csc(N)n2)C1
tested.system: D(2) dopamine receptor (Rattus norvegicus, UniProt P61169)
class.assignment: true (1)
//
smiles.data: CCCCN1CCC=C(c2csc(N)n2)C1.Cl.Cl
tested.system: D(2) dopamine receptor (Rattus norvegicus, UniProt P61169)
class.assignment: false (0)
//
smiles.data: CCCCCCCN1CCC=C(c2csc(N)n2)C1.Cl.Cl
tested.system: D(2) dopamine receptor (Rattus norvegicus, UniProt P61169)
class.assignment: false (0)

====

Listing of entries alongside the reported log10 of IC50.
# tested.system: D(2) dopamine receptor (Rattus norvegicus, UniProt P61169)
# assay.procedure: Inhibition of [3H]N-propylnorapomorphine binding to Dopamine receptor D2 of rat striatal membranes
# Assay type: cell membranes, Membrane
measured.metric: log10 of IC50 (log10 of the value in µM)

smiles.data: Cl.Cl.Nc1nc(C2=CCCN(CCc3ccccc3)C2)cs1
log10 of IC50: -0.04

smiles.data: C=CCN1CCC=C(c2csc(N)n2)C1
log10 of IC50: -0.59

smiles.data: CCN1CCC=C(c2csc(N)n2)C1
log10 of IC50: -0.39

smiles.data: CCCCCCN1CCC=C(c2csc(N)n2)C1.Cl.Cl
log10 of IC50: 0.73

smiles.data: CCCCN1CCC=C(c2csc(N)n2)C1.Cl.Cl
log10 of IC50: 0.60

smiles.data: CCCN1CCC=C(c2csc(N)n2)C1
log10 of IC50: -0.22

smiles.data: CCCCCCCN1CCC=C(c2csc(N)n2)C1.Cl.Cl
log10 of IC50: 0.71

smiles.data: Br.Br.CCCCCN1CCC=C(c2csc(N)n2)C1
log10 of IC50: 0.81

====

# Test system: Rattus norvegicus
# assay.procedure: Inhibition of locomotor activity was determined after oral administration in rat
# Assay type: functional
Active and inactive are the calls of the source. No cut-off for these calls is given here.

compound: CCCCN1CCC=C(c2csc(N)n2)C1.Cl.Cl
ED50: 5.4 mg/kg
//
compound: CCN1CCC=C(c2csc(N)n2)C1
ED50: inactive
//
compound: CCCN1CCCC(c2csc(N)n2)C1.Cl.Cl (centres undefined)
ED50: 18.9 mg/kg
//
compound: CCCCN1CCC=C(c2csc(NC)n2)C1.Cl.Cl
ED50: 16.7 mg/kg
//
compound: Cl.Cl.Nc1nc(C2=CCCN(CCc3ccccc3)C2)cs1
ED50: 33.6 mg/kg
//
compound: Br.Br.CCCCCN1CCC=C(c2csc(N)n2)C1
ED50: 15.6 mg/kg
//
compound: CCCCCCCN1CCC=C(c2csc(N)n2)C1.Cl.Cl
ED50: > 30 mg/kg
//
compound: CN1CCC=C(c2csc(N)n2)C1.Cl.Cl
ED50: inactive
//
compound: CCCN1CCCC(c2cccc(O)c2)C1 (racemic)
ED50: 3 mg/kg
